- ASSAY SYSTEM: T1, human IL-13 R130Q variant (R110Q of the mature chain) (human, UniProt P35225 35-146, Biotinylated on amines (NHS-LC-biotin, 4:1) in ELISA, panning and competition assays. The letters are unchanged.)
- T1 construct: R130Q counts from Met 1 of the signal peptide, R110Q on the mature chain; Bought from Peprotech; also called IL-13 R110Q; b-R130Q
- T1 sequence (P35225 35-146 limits assumed, stated change not applied): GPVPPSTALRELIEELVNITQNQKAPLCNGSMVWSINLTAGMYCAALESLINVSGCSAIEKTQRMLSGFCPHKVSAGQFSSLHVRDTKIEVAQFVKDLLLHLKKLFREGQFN
- PROCEDURE SUMMARY: Ra2 binding inhibition ELISA, mAb in crude HEK293 supernatant, IL-13 binding to IL-13Ra2

[
  {
    "BINDER": "mAb with Lc 5A02 (Lc6 variant) and Hc2 (antibody, V domains shown, human IgG1) VH: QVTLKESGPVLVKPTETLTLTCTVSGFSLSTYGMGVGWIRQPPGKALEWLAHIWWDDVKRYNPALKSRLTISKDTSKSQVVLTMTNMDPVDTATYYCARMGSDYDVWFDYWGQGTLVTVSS VL: EIVLTQSPATLSLSPGERATLSCRASKSISKYLAWYQQKPGQAPRLLIYSGSTLQSGIPARFSGSGSGTDFTLTISSLEPEDFAVYYCQQQDYGPYTFGQGTKLEIK",
    "% Ra2 Binding Inhibition (%)": 78.4
  },
  {
    "BINDER": "mAb with Lc 1E03 (Lc6 variant) and Hc2 (antibody, V domains shown, human IgG1) VH: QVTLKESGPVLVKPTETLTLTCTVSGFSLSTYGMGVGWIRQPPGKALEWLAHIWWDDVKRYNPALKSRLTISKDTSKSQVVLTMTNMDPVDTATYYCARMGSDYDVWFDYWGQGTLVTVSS VL: EIVLTQSPATLSLSPGERATLSCRASKSISKYLAWYQQKPGQAPRLLIYSGSTLQSGIPARFSGSGSGTDFTLTISSLEPEDFAVYYCQQHLLGPYTFGQGTKLEIK",
    "% Ra2 Binding Inhibition (%)": 61.5
  },
  {
    "BINDER": "mAb with Lc 3A05 (Lc6 variant) and Hc2 (antibody, V domains shown, human IgG1) VH: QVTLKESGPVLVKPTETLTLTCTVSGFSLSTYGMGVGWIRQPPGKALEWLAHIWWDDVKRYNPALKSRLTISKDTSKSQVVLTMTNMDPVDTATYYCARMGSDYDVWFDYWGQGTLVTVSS VL: EIVLTQSPATLSLSPGERATLSCRASKSISKYLAWYQQKPGQAPRLLIYSGSTLQSGIPARFSGSGSGTDFTLTISSLEPEDFAVYYCQQHDNSPYTFGQGTKLEIK",
    "% Ra2 Binding Inhibition (%)": 55.5
  }
]
